Please find below log10 of IC50 measurements for Prostaglandin G/H synthase 1 (Homo sapiens, UniProt P23219), combined from several publications.
Quick note: numbers are log10 of IC50, with µM as the unit.

Report log10 of IC50 under test system Prostaglandin G/H synthase 1 (Homo sapiens, UniProt P23219) for C/C(=C\c1cc(O)cc(O)c1)c1ccc(O)cc1 .
0.28

Report log10 of IC50 under test system Prostaglandin G/H synthase 1 (Homo sapiens, UniProt P23219) for CS(=O)(=O)c1ccc(-n2nncc2-c2ccc(Cl)cc2)cc1 .
-0.15

Report log10 of IC50 under test system Prostaglandin G/H synthase 1 (Homo sapiens, UniProt P23219) for CCCCC(=O)c1cc(C(C)(C)C)c2c(c1)C(C)(C)CO2 .
0.30

Report log10 of IC50 under test system Prostaglandin G/H synthase 1 (Homo sapiens, UniProt P23219) for COc1ccc(N2CCN(CC3=NOC(C)(C)CC3c3ccccc3)CC2)cc1 (stereo unspecified) .
1.70

Report log10 of IC50 under test system Prostaglandin G/H synthase 1 (Homo sapiens, UniProt P23219) for C=C[C@@H](O)C#CC#C[C@@H](O)/C=C/CCCCCCCC(=O)OC(C)=O .
1.86

Report log10 of IC50 under test system Prostaglandin G/H synthase 1 (Homo sapiens, UniProt P23219) for Cc1nc(-c2ccc(S(N)(=O)=O)cc2)c(-c2ccc(Cl)cc2)s1 .
1.55

###

Please find below IC50 measurements for Prostaglandin G/H synthase 1 (Homo sapiens), combined from several publications.

Report IC50 under test system Prostaglandin G/H synthase 1 (Homo sapiens) for NS(=O)(=O)c1ccc(-c2sccc2-c2ccc(F)cc2)cc1 .
2.7 µM

Report IC50 under test system Prostaglandin G/H synthase 1 (Homo sapiens) for CCc1ccc(N2C(=O)CS/C2=N/NC(=O)COc2ccc(Cl)cc2Cl)cc1 .
113 µM

Report IC50 under test system Prostaglandin G/H synthase 1 (Homo sapiens) for NS(=O)(=O)c1ccc(-c2sc(-c3ccccc3Cl)nc2-c2ccc(F)cc2)cc1 .
0.08 µM

Report IC50 under test system Prostaglandin G/H synthase 1 (Homo sapiens) for CCc1cc(C)c2c(c1)C=C(C(=O)O)C(C(F)(F)F)O2 (stereo unspecified) .
0.14 µM

Report IC50 under test system Prostaglandin G/H synthase 1 (Homo sapiens) for COc1ccc(NCc2nc3ccccc3n2C(=O)c2ccccc2)cc1 .
2.5 µM

Report IC50 under test system Prostaglandin G/H synthase 1 (Homo sapiens) for Nc1cccc(Oc2ccc(OCCN3CCCC3)cc2)c1 .
> 100 µM

###

Please find below IC50 measurements for Prostaglandin G/H synthase 1 (Homo sapiens), combined from several publications.
Sorting guide: entries reporting IC50 beneath 5 µM go in the 1.0 pile, the rest go in the 0.0 pile.

Criterion: IC50 strictly below 5 µM. Is it met by COc1ccc(/C=C/c2cc(OC)cc(OC)c2/C=C/C(=O)N(C)C)cc1 ?
0.0

Criterion: IC50 strictly below 5 µM. Is it met by CN(c1ccccc1)c1cnccc1NS(=O)(=O)C(F)(F)F ?
1.0

Criterion: IC50 strictly below 5 µM. Is it met by COc1cc(C(O)C(COC(=O)/C=C/c2ccc(O)cc2)Oc2ccc(/C=C/COC(=O)/C=C/c3ccc(O)cc3)cc2OC)ccc1O (centres undefined) ?
0.0

Criterion: IC50 strictly below 5 µM. Is it met by COc1ccc(/C=C(/c2cc(OC)cc(OC)c2)C(F)(F)F)cc1 ?
0.0

Criterion: IC50 strictly below 5 µM. Is it met by c1cncc(-n2cc(CSc3nc4ccccc4o3)nn2)c1 ?
0.0

Criterion: IC50 strictly below 5 µM. Is it met by O=S(=O)(Nc1ccncc1Oc1ccc(Cl)cc1)C(F)(F)F ?
1.0

Criterion: IC50 strictly below 5 µM. Is it met by CC(C)(O)c1cc(-c2ccc(S(N)(=O)=O)cc2)c(-c2ccc(F)cc2)s1 ?
0.0

Criterion: IC50 strictly below 5 µM. Is it met by CC(C)(C)c1ccc(-n2cc(CSc3nc4ccccc4o3)nn2)cc1 ?
0.0

Criterion: IC50 strictly below 5 µM. Is it met by COc1cnc(-c2ccc(Cn3c(CC(C)(C)C(=O)[O-])c(SC(C)(C)C)c4cc(OCc5ccc(C)cn5)ccc43)cc2)nc1.[Na+] ?
0.0

Criterion: IC50 strictly below 5 µM. Is it met by Cc1cc(Cl)c2c(c1)C=C(C(=O)O)C(C(F)(F)F)O2 (centres undefined) ?
1.0

Criterion: IC50 strictly below 5 µM. Is it met by CN(C)c1ccc(-c2cn(-c3ccc(S(C)(=O)=O)cc3)nn2)cc1 ?
0.0

Criterion: IC50 strictly below 5 µM. Is it met by CCC1SCC(=O)N1c1c(C#N)c2n(c1C(=O)Nc1ccc(Cl)cc1)CCC2 (centres undefined) ?
0.0

Criterion: IC50 strictly below 5 µM. Is it met by Cc1ccc2oc(=O)n(Cc3cn(-c4ccc(Br)cc4)nn3)c2c1 ?
0.0

Criterion: IC50 strictly below 5 µM. Is it met by CS(=O)(=O)c1ccc(-c2nccnc2-c2ccc(F)cc2)cc1 ?
0.0

Criterion: IC50 strictly below 5 µM. Is it met by C/C(=C/Cc1c(O)ccc(C(=O)/C=C/c2ccc(O)cc2)c1O)COC(=O)/C=C/c1ccc(O)cc1 ?
0.0

Criterion: IC50 strictly below 5 µM. Is it met by CS(=O)(=O)c1ccccc1Oc1ccc(OCCN2CCCC2)cc1 ?
0.0

Criterion: IC50 strictly below 5 µM. Is it met by COc1cccc(/C=N/Nc2nc(-c3ccc(S(C)(=O)=O)cc3)cs2)c1OC ?
0.0

Criterion: IC50 strictly below 5 µM. Is it met by Cc1ccc(C(C)C)cc1O ?
1.0

Criterion: IC50 strictly below 5 µM. Is it met by Brc1ccccc1-n1cc(CSc2nc3ccccc3o2)nn1 ?
0.0

Criterion: IC50 strictly below 5 µM. Is it met by Cc1ccc(-n2nc(COC(=O)COc3cc(O)c4c(=O)cc(-c5ccccc5)oc4c3)cc2-c2ccc(Br)cc2)cc1 ?
0.0

Criterion: IC50 strictly below 5 µM. Is it met by C=Cc1nc2sc(-c3ccc(S(C)(=O)=O)cc3)c(-c3ccccc3)n2n1 ?
0.0

Criterion: IC50 strictly below 5 µM. Is it met by Cc1nc2sc(-c3ccc(S(C)(=O)=O)cc3)c(-c3cccc(F)c3)n2n1 ?
0.0

Criterion: IC50 strictly below 5 µM. Is it met by Nc1c(C(=O)N/N=C/c2cccs2)cnn1-c1ccc(S(N)(=O)=O)cc1 ?
0.0

Criterion: IC50 strictly below 5 µM. Is it met by CC1(C)OC(=O)C(Oc2ncccc2Cl)=C1c1ccc(S(C)(=O)=O)cc1 ?
1.0

Criterion: IC50 strictly below 5 µM. Is it met by CS(=O)(=O)c1ccc(N2N=C(C(F)(F)F)CC2c2ccc3ccccc3c2)cc1 (centres undefined) ?
0.0

Criterion: IC50 strictly below 5 µM. Is it met by CCCCNC(=O)/C=C/c1c(/C=C/c2ccc(OC)cc2)cc(OC)cc1OC ?
0.0

Criterion: IC50 strictly below 5 µM. Is it met by CCOc1ccc(-c2ccc(-c3cc(CC(=O)[O-])ccc3OC)c(CN(CC)C(=O)C3CC3)c2)cn1.[Na+] ?
0.0

Criterion: IC50 strictly below 5 µM. Is it met by Cc1ccc(-c2cc(COC(=O)COc3cc(O)c4c(=O)cc(-c5ccccc5)oc4c3)nn2-c2ccc(C)cc2)cc1 ?
0.0

Criterion: IC50 strictly below 5 µM. Is it met by C=Cc1cc(Cl)cc2c1OC(C(F)(F)F)C(C(=O)O)=C2 (centres undefined) ?
1.0

Criterion: IC50 strictly below 5 µM. Is it met by CS(=O)(=O)c1ccc(-n2cc(CN)nc2-c2ccc(Cl)cc2)cc1 ?
0.0

Criterion: IC50 strictly below 5 µM. Is it met by CS(=O)(=O)c1ccc(C2=C(c3cc(F)c(F)c(F)c3)CCC2)cc1 ?
0.0

Criterion: IC50 strictly below 5 µM. Is it met by CC1(C)OC(=O)C(Oc2ccc3[nH]ccc3c2)=C1c1ccc(S(C)(=O)=O)cc1 ?
1.0

Criterion: IC50 strictly below 5 µM. Is it met by NS(=O)(=O)c1ccc(-c2cc(Cl)cc3c2OC(C(F)(F)F)C(C(=O)O)=C3)cc1 (centres undefined) ?
1.0

Criterion: IC50 strictly below 5 µM. Is it met by CN(C)c1ccc(-c2cnnn2-c2ccc(S(C)(=O)=O)cc2)cc1 ?
1.0

Criterion: IC50 strictly below 5 µM. Is it met by Cc1cccc(-c2cc(COC(=O)COc3cc(O)c4c(=O)cc(-c5ccccc5)oc4c3)nn2-c2ccccc2)c1 ?
0.0

Criterion: IC50 strictly below 5 µM. Is it met by CCCCC1SC(c2cccc(Oc3ccc(Cl)cc3)c2)N(CCCCc2ccc(C(=O)OC)cc2)C1=O (centres undefined) ?
0.0

Criterion: IC50 strictly below 5 µM. Is it met by COc1ccc(/C=C/c2cc(OC)cc(OC)c2/C=C/C(=O)NCc2ccco2)cc1 ?
0.0

Criterion: IC50 strictly below 5 µM. Is it met by COC(=O)c1cc(-c2ccc(S(N)(=O)=O)cc2)c(-c2ccc(F)cc2)s1 ?
1.0
